reportedProperty: melting point (°C)

compound	measurementUnit	recordedValue
NC(=O)C=Cc1ccccc1	°C	149
OC1CCCCC1Cl (stereo not given)	°C	29
CC(C)S(=O)(=O)n1c(N)nc2ccc(C(=NO)c3ccccc3)cc21	°C	198
COc1ccc2c(c1OC)CN(C)CCc1cc3c(cc1C(=O)C2)OCO3	°C	160
CCOc1cc(NC(C)=O)ccc1C(=O)OC	°C	148
Cc1ccccc1N1CCN(CCc2nnc3n2CCCC3)CC1	°C	158
CC=C(C)C(=O)OC1CCN2CC=C(COC(=O)C(O)(C(C)OC)C(C)(C)O)C12 (stereo not given)	°C	97
COc1ccccc1OP(=O)(Oc1ccccc1OC)Oc1ccccc1OC	°C	91
CCOc1ccccc1N	°C	-4
Cc1cc2ccccc2c2ccc3ccccc3c12	°C	118
CN(C)C(=O)OC1=CC(=O)CC(C)(C)C1	°C	45.5
O=C(O)Cc1cccc(CC(=O)O)c1	°C	175
CCOC(=O)c1c(C)[nH]c2cc3[nH]c(C)c(C(=O)OCC)c3cc12	°C	342
O=S(=O)(Cl)c1ccc(F)cc1Cl	°C	30
Cc1cc(=O)oc2cc(O)cc(O)c12	°C	299

----------
Reported melting point values for the following compounds.

compound	melting point
CC(=O)OCC(=O)C12OC(C)(C)OC1CC1C3CC(F)C4=CC(=O)C=CC4(C)C3(F)C(O)CC12C (centres undefined)	309 °C
O=C1/C(=C/c2ccccc2)SC(=S)N1CN1CCOCC1	121 °C
Cc1ccc(F)cc1NC(N)=S	120 to 123 °C
O=C(c1ccccc1)c1cccc([N+](=O)[O-])c1	92 to 94 °C
CC1(C)C2CCC1(C)C(O)C2C(c1ccccc1)c1ccccc1 (centres undefined)	171 °C
Cc1ccc(-c2nnc(-c3ccccc3)c3c(C)onc23)cc1	206 °C
Cc1nn(C)c(C)c1Br	35 °C
COc1ccc2c(c1)CC(CCC(=O)O)(CCC(=O)O)C2=O	151 °C
ON=C(Cl)c1ccc(Cl)cc1Cl	93 to 95 °C
CC(=O)Nc1cc2c(cc1/C=C/c1ccccc1)CC(c1ccccc1)N2C(C)=O (centres undefined)	272 °C
COc1ccc2c(c1)CC1(CCC(=O)C(C(=O)O)C1)C2=O (centres undefined)	120 °C
Cc1c(C#N)[nH]c2ccccc12	102 to 104 °C
Clc1nc(-c2ccccc2)nc2ccccc12	123 to 128 °C
O=C(O)C1CCNCC1	336 °C
Cc1cc(C=O)c(O)c(C=O)c1	127 to 131 °C
Cc1cc2ccccc2cc1C	105 °C
CN(C)c1ccccc1-c1ccccc1P(C1CCCCC1)C1CCCCC1	123 °C
O=C(NC(CO)(Cc1ccccc1)C(=O)O)c1ccccc1 (racemic)	160 to 162 °C
O=[N+]([O-])c1ccc(/C=C\c2ccccc2C=NNc2ccccc2)c([N+](=O)[O-])c1	193 °C
CCOC(=O)c1cc(C(=O)O)c([N+](=O)[O-])cc1[N+](=O)[O-]	154 °C
OC(c1ccc(F)cc1)c1ccc(F)cc1	47 °C
O=C(Nc1cccc([N+](=O)[O-])c1)C(C(F)(F)F)C(F)(F)F	200 °C
COC1=CC(=O)OC1	60 to 65 °C
Nc1cccc2c(O)cccc12	189 °C

----------
molecule	melting point
O=C(O)C1c2ccccc2C(=O)N(Cc2ccc(F)cc2)C1c1cccnc1 (stereo unspecified)	250 °C
C[Si](C)(C)C#CC#C[Si](C)(C)C	112 °C
Brc1ccc2[nH]c3ccccc3c2c1	195 to 197 °C
Cn1c(S)nnc1Cc1nc(-c2cnccn2)no1	203 to 204 °C
Nc1ccc(C(=O)O)cc1[N+](=O)[O-]	290 °C
CC(C)(C)c1ccc2ccccc2c1	-4 °C
